measured.target: UniProt:P12497
measurement.description: In vitro integrase catalytic assay, strand transfer (ST)
Assay type: biochemical
recorded.conditions: 400 nM IN, 20 nM 32P-labeled pre-cleaved 19T/21B DNA, 37 °C, 2 h
pIC50: −log10 of the molar value. Where a SMILES comes first, the peptide text is derived from it.

compound | value.operator | pIC50
CC[C@H](C)[C@H](NC(=O)[C@H](CCCNC(=N)N)NC(=O)[C@H](C)NC(=O)[C@H](Cc1c[nH]cn1)NC(=O)[C@@H](NC(=O)[C@@H](N)Cc1ccccc1)[C@@H](C)CC)C(=O)NCC(N)=O [Peptide 5b, FIHARIG-amide] (H-FIHARIG-NH2) | < | 3.95
CC[C@H](C)[C@H](NC(=O)[C@H](C)NC(C)=O)C(=O)N[C@@H](Cc1c[nH]cn1)C(=O)N[C@@H](Cc1ccccc1)C(=O)N[C@@H](CCCNC(=N)N)C(=O)N[C@H](C(=O)NCC(N)=O)[C@@H](C)CC [Peptide 8c, Ac-AIHFRIG-amide] (Ac-AIHFRIG-NH2) | = | 4.34
